# Target desc: T1, human interleukin-2 receptor α-chain (IL-2Rα; CD25), recombinant protein (human, UniProt P01589 22-240, limits assumed)
# T1 construct: also called huIL2R-a; hIL-2RA
# T1 sequence: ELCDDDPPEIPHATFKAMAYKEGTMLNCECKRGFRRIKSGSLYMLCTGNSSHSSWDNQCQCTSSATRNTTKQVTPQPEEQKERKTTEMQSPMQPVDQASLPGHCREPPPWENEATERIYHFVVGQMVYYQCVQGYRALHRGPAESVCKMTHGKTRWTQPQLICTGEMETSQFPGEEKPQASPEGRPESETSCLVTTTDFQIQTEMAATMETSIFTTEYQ
# Assay protocol: ELISA, bivalent VHH-hFc
Listing: pEC50 of selected binders
Friendly reminder that pEC50 comes from taking -log10 of the concentration in mol/L.

Sample records with pEC50:
Binder	Recorded metric	Assay value
1-MP01H01 VHH-hFc, monospecific bivalent (Fc fusion, IgG1 Fc LALA-PG; not shown: human IgG1 CH2 and CH3 domains (Fc)) EVQLVESGGGLVQAGGSLRLSCAASGRTFRTHNMGWFRRAPGKEREFVAAISWNVDNTLYADSVKGRFTISRDNGRNMVYLQMNSLKPEDTAVYYCAADNIPLSSDVAATATEYDYWGQGTQVTVSS	pEC50	10.28
6-MP01G05 VHH-hFc, monospecific bivalent (Fc fusion, IgG1 Fc LALA-PG; not shown: human IgG1 CH2 and CH3 domains (Fc)) QVQLQESGGGLVQAGGSLRLSCAASGRTFSSYAMGWFRQAPGKEREFVAVISWNVDNTEYTDSVKGRFTISRDNDKNMVYLQMNSLKPEDTAVYYCAADSIPLSSDMSPTATEYGYWGQGTQVTVSS	pEC50	10.25
9-MP05G01 VHH-hFc, monospecific bivalent (Fc fusion, IgG1 Fc LALA-PG; not shown: human IgG1 CH2 and CH3 domains (Fc)) EVQLVESGGGLVQAGGSLRLSCAASGGSIYTYNMGWFRQAPGKEREFVAGTLWSGGDSVYADFAKGRFTLSRENAKNTLYLQMNSLKPEDTATYYCAIDPLSLTSDWRVDELSSWGKGTLVTVSS	pEC50	10.19

So for 2-MP01A02 VHH-hFc, monospecific bivalent (Fc fusion, IgG1 Fc LALA-PG; also called anti-IL-2Rα Ab 2; not shown: human IgG1 CH2 and CH3 domains (Fc)) QVQLVESGGGLVQPGGSLRLSCATSGFTFRNNFMSWVRQAPGKGLEWVSTISYGGESTTYAESVKGRFTISRDNAKNTLYLQMNNLKPEDTAVYYCAKATSYDSIRSGSRGQGTQVTVSS , the logged pEC50 turned out to be 10.42

So for 4-MP01F04 VHH-hFc, monospecific bivalent (Fc fusion, IgG1 Fc LALA-PG; not shown: human IgG1 CH2 and CH3 domains (Fc)) QVQLVESGGGLVQAGGSLRLSCAASGGTFRTRNMGWFRRAPGKEREFVAAVSWNVDNKLYADSVKGRFTISRDNGRNMVYLQMNSLKPEDTAVYYCAADNIPLSSDMRPTATEYDYWGQGTQVTVSS , the logged pEC50 turned out to be 10.28

So for 13-MP05E12 VHH-hFc, monospecific bivalent (Fc fusion, IgG1 Fc LALA-PG; not shown: human IgG1 CH2 and CH3 domains (Fc)) QVQLQESGGGLVQAGDSLRLSCAASGFNFGWHAMGWFRQAPGKEREFVATITWTGRDTYYADSVRGRFTISKDNAKDTLFLQMNSLRPDDTGVYYCAKARERATWAYSEDDCDYWGQGTQVTVSS , the logged pEC50 turned out to be 10.31

So for 12-MP05B12 VHH-hFc, monospecific bivalent (Fc fusion, IgG1 Fc LALA-PG; not shown: human IgG1 CH2 and CH3 domains (Fc)) QVQLVESGGGLVQAGGSLRLSCAASGFTFDGYAIGWFRQAPGKEREGVSYITGSDGSTYYADSVKGRFTISSNNAKNTVYLHMNSLKPDDAAVYYCAIDRLGSRGAYVPIWWRSSDMDLWGKGTLVTVSS , the logged pEC50 turned out to be 10.13

So for 8-MP01C12 VHH-hFc, monospecific bivalent (Fc fusion, IgG1 Fc LALA-PG; also called anti-IL-2Rα Ab 8; anti-IL-2Rα VHH 8; not shown: human IgG1 CH2 and CH3 domains (Fc)) QVQLVESGGGLVQPGGSLRLSCATSGFTFSNNFMSWVRQAPGKGLEFVSTISYGGESTTYAEAVKGRFTISRDNAKNTLYLQMNNLKPEDTAIYYCAKATSYTSIRGAPRGQGTQVTVSS , the logged pEC50 turned out to be 10.29
